System: THP-1 viability, CellTiter-Glo luminescence, 72 h
Protocol description: THP-1 cell cytotoxicity, dose response, cytotoxicity control for Salmonella PhoP regulon inhibitors, S. typhimurium screen hits (AID 2253)
# reported pEC50; entries follow
// pEC50: -log10(molar conc.)

Consider the reported pEC50 for these compounds:
O=C1c2ccccc2NC(c2ccc(-c3ccc(Br)cc3)o2)N1O (stereo unspecified) | 5.15
c1ccc2c(CCNCc3ccc4c(c3)OCO4)c[nH]c2c1 | 4.62
COc1ccc(Nc2cc(C)nc(NCc3ccccc3)n2)cc1 | 5.00

Given the compound O=C1NC2=C(CCc3ccccc32)C(c2ccc(Br)cc2)N1 (stereo unspecified) , what is its reported pEC50?
4.71

Given the compound Cc1ccc2nc(NNC(=O)c3ccc(S(=O)(=O)N4CCc5ccccc5C4)cc3)sc2c1 , what is its reported pEC50?
5.74

Given the compound OCCCNc1nc(-c2ccc(Cl)cc2)nnc1-c1ccc(Br)cc1 , what is its reported pEC50?
4.70
